- measuredTarget: human A2B adenosine receptor (Homo sapiens)
- protocolNotes: [3H]DPCPX binding to human A2B receptors expressed in HEK293 cells
- Design: host or cells: HEK 293 cells (membranes)
- experimentalContext: geometric mean (95% confidence interval); >1000 = no appreciable binding; read-out: Ki, [3H]DPCPX binding to human A2B receptors expressed in HEK293 cells
pKi: −log10 of the molar value.
measuredEndpoint: pKi

>  <compound>
CCCn1c(=O)c2[nH]c(-c3cc(OCC(=O)Nc4ccc(C)cc4)nn3C)nc2n(CCC)c1=O [AS92]

>  <pKi>
7.72

$$$$

I: CCCn1c(=O)c2[nH]c(-c3cc(NC(=O)Cc4ccc(OC)c(OC)c4)nn3C)nc2n(CCC)c1=O
II: CCCn1c(=O)c2[nH]c(-c3ccc(OCC(=O)Nc4ccc(I)cc4)nc3)nc2n(CCC)c1=O
III: CCCn1c(=O)c2[nH]c(-c3cc(NC(=O)Cc4ccc(O)c(OC)c4)nn3C)nc2n(CCC)c1=O
# input Order these by pKi, descending, and give the full ranking. // ordering of labels required in reply
# output I, II, III

----------
- measuredTarget: human A2B adenosine receptor (Homo sapiens)
- protocolNotes: [3H]DPCPX binding to human A2B receptors expressed in HEK293 cells
- Parameters: host or cells: HEK 293 cells (membranes)
- experimentalContext: geometric mean (95% confidence interval); >1000 = no appreciable binding; read-out: Ki, [3H]DPCPX binding to human A2B receptors expressed in HEK293 cells
measuredEndpoint: Ki (nM)

Here's what some known entries look like.
>  <chemicalSmiles>
CCCn1c(=O)c2[nH]c(-c3cc(NC(=O)Cc4ccc(F)cc4)nn3C)nc2n(CCC)c1=O

>  <Ki, nM>
88

$$$$
>  <chemicalSmiles>
CCCn1c(=O)c2[nH]c(-c3cc(NC(=O)Cc4ccc5c(c4)OCO5)nn3C)nc2n(CCC)c1=O

>  <Ki, nM>
18

$$$$
>  <chemicalSmiles>
CCCn1c(=O)c2[nH]c(-c3cc(OCC(=O)Nc4ccc(C)c(C)c4)nn3C)nc2n(CCC)c1=O

>  <Ki, nM>
10

$$$$
>  <chemicalSmiles>
CCCn1c(=O)c2[nH]c(-c3cc(NC(=O)Cc4cccc(OC)c4)nn3C)nc2n(CCC)c1=O

>  <Ki, nM>
96

$$$$

a: CCCn1c(=O)c2[nH]c(-c3cc(OCC(=O)Nc4ccc(F)cc4)no3)nc2n(CCC)c1=O
b: CCCn1c(=O)c2[nH]c(-c3cc(OCC(=O)Nc4ccc(C(=O)O)cc4)nn3C)nc2n(CCC)c1=O
c: CCCn1c(=O)c2[nH]c(-c3cc(NC(=O)Cc4ccc(O)cc4)nn3C)nc2n(CCC)c1=O
d: CCCn1c(=O)c2[nH]c(-c3cc(OCC(=O)Nc4ccc(Br)cc4)nn3C)nc2n(CCC)c1=O
e: CC(C)Cn1c(=O)c2[nH]c(-c3cc(OCC(=O)Nc4ccc(F)cc4)n(C)n3)nc2n(CC(C)C)c1=O
# input Ordering criterion: Ki; begin with the maximum. Answer by writing out the labels in the requested order.
# output e, c, a, b, d
(e: 207 nM, c: 103 nM, a: 70 nM, b: 36 nM, d: 20 nM)

----------
pKi values, listed per item
- measuredTarget: human A2A adenosine receptor (Homo sapiens)
- Construct: expressed in transfected cells; host or cells: CHO cells (membranes)
- Sequence (P29274 whole entry): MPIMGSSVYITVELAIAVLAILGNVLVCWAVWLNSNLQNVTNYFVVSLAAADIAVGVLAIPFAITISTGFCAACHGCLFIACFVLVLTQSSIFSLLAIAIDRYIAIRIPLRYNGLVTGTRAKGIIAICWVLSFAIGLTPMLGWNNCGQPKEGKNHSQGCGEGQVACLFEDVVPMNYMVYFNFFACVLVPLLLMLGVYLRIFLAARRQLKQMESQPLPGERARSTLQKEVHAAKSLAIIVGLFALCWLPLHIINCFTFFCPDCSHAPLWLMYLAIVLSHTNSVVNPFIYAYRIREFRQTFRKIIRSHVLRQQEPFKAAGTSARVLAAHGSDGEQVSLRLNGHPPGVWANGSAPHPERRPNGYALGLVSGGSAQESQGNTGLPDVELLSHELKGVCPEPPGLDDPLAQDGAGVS
- protocolNotes: [3H]ZM241385 binding to human A2A receptors expressed in CHO cells
- experimentalContext: read-out: Ki, [3H]ZM241385 binding to human A2A receptors expressed in CHO cells
- Experimental: The cells were grown adherently and maintained in Dulbecco's modified Eagle's medium with nutrient mixture F12 without nucleosides at 37° C. in 5% CO2/95% air. […] The filter bound radioactivity was counted on Top Count (efficiency 57%) with Micro-Scint 20. The filter bound radioactivity was counted on a Top Count brand Microplate Scintillation Counter (efficiency 57%) with Micro-Scint 20. […]
pKi: −log10 of the molar value.

Worked cases, answers included:
>  <chemicalSmiles>
CCCn1c(=O)c2nc(-c3cc(OCC(=O)Nc4ccc(Br)cc4)n(C)n3)[nH]c2n(CCC)c1=O

>  <measuredTarget>
human A2A adenosine receptor (Homo sapiens)

>  <pKi>
< 6.00

$$$$
>  <chemicalSmiles>
CCCn1c(=O)c2[nH]c(-c3cc(NC(=O)Cc4ccc(OCc5ccccc5)c(OC)c4)nn3C)nc2n(CCC)c1=O

>  <measuredTarget>
human A2A adenosine receptor (Homo sapiens)

>  <pKi>
5.61

$$$$
>  <chemicalSmiles>
CCCn1c(=O)c2[nH]c(-c3cc(NC(=O)CCCN)nn3C)nc2n(CCC)c1=O

>  <measuredTarget>
human A2A adenosine receptor (Homo sapiens)

>  <pKi>
< 6.00

$$$$
>  <chemicalSmiles>
CCCn1c(=O)c2[nH]c(-c3cc(OCC(=O)Nc4ccc(C(=O)O)cc4)nn3C)nc2n(CCC)c1=O

>  <measuredTarget>
human A2A adenosine receptor (Homo sapiens)

>  <pKi>
< 6.00

$$$$

# input Quick check: pKi of CCCn1c(=O)c2[nH]c(-c3cc(OCC(=O)Nc4ccc(OC)c(OC)c4)no3)nc2n(CCC)c1=O ?
# output < 6.00

# input // returns reported pKi for input C=CCn1c(=O)c2[nH]c(-c3cc(OCC(=O)N4CCN(c5ccccc5)CC4)nn3C)nc2n(CC=C)c1=O
# output < 6.00

# input Fill in: pKi of CCCn1c(=O)c2[nH]c(-c3cc(NC(=O)Nc4ccc(OC)cc4)nn3C)nc2n(CCC)c1=O is ___
# output < 6.00

# input I am curious: what pKi value has been reported for Cn1nc(NC(=O)Cc2ccccc2)cc1-c1nc2c([nH]1)c(=O)n(C)c(=O)n2C ?
# output < 6.00

# input Item CCCn1c(=O)c2[nH]c(-c3cc(NC(=O)COc4ccc(Cl)cc4)nn3C)nc2n(CCC)c1=O has what recorded pKi?
# output < 6.00

# input What does the data say about its pKi? Entry: CCCn1c(=O)c2[nH]c(-c3cc(OCC(=O)N4CCN(C)CC4)nn3C)nc2n(CCC)c1=O
# output < 6.00

# input Returns the measured pKi for the input molecule. Input: CCCn1c(=O)c2[nH]c(-c3cc(NC(=O)CCC(=O)O)nn3C)nc2n(CCC)c1=O
# output < 6.00

# input Bench note: what pKi did CCCn1c(=O)c2[nH]c(-c3cc(NC(=O)COc4ccc(Cl)cc4Cl)nn3C)nc2n(CCC)c1=O show?
# output < 6.00

# input Entry CCCn1c(=O)c2[nH]c(-c3cc(NC(=O)Cc4ccc(OCc5ccc([N+](=O)[O-])cc5)cc4)nn3C)nc2n(CCC)c1=O has what pKi?
# output < 6.00

# input Form field: reported pKi of CC(C)Cn1c(=O)c2[nH]c(-c3cc(OCC(=O)Nc4ccc(F)cc4)n(C)n3)nc2n(CC(C)C)c1=O
# output < 6.00

# input Can you share its pKi? I mean this molecule: CCCn1c(=O)c2[nH]c(-c3cc(OCC(=O)Nc4ccc(C)cc4)nn3C)nc2n(CCC)c1=O
# output < 6.00

# input I would be grateful if you could share the reported pKi for CCCn1c(=O)c2[nH]c(-c3cc(NC(=O)Cc4cccc(Cl)c4)nn3C)nc2n(CCC)c1=O .
# output < 6.00

----------
- measuredTarget: UniProt P29275
- Sequence (P29275 1-332): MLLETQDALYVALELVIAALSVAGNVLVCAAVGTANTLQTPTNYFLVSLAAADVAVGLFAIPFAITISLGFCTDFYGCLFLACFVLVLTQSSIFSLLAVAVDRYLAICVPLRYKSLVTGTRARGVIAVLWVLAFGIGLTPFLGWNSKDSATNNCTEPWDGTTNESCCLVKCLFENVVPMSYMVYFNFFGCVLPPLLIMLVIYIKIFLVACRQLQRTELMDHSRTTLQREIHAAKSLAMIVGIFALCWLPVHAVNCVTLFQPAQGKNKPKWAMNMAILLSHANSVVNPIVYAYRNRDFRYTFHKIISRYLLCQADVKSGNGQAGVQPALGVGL
- protocolNotes: [3H]DPCPX binding to human A2B receptors expressed in HEK293 cells
- Set-up: host or cells: HEK 293 cells (membranes)
- experimentalContext: geometric mean (95% confidence interval); >1000 = no appreciable binding; read-out: Ki, [3H]DPCPX binding to human A2B receptors expressed in HEK293 cells
pKi: −log10 of the molar value.
measuredEndpoint: pKi

Solved cases below.
>  <compound>
CCCn1c(=O)c2[nH]c(-c3cc(OCC(=O)Nc4ccc(C(C)CC)cc4)nn3C)nc2n(CCC)c1=O (centres unmarked)

>  <pKi>
7.13

$$$$
>  <compound>
CCCn1c(=O)c2[nH]c(-c3cc(OCC(=O)Nc4ccc(OC)c(OC)c4)no3)nc2n(CCC)c1=O

>  <pKi>
7.29

$$$$
>  <compound>
CC(C)Cn1c(=O)c2[nH]c(-c3cc(OCC(=O)Nc4ccc(Br)cc4)n(C)n3)nc2n(CC(C)C)c1=O

>  <pKi>
7.18

$$$$

A: CCCn1c(=O)c2[nH]c(-c3cc(NC(=O)Cc4ccc(OCc5ccccc5)cc4)nn3C)nc2n(CCC)c1=O
B: CCCn1c(=O)c2[nH]c(-c3cc(NC(=O)Cc4ccc(OCc5cccc(C(F)(F)F)c5)cc4)nn3C)nc2n(CCC)c1=O
# input Lab note: record which item had the higher pKi, A or B . API: response body contains the label of the selected item.
# output A
(A: 7.25, B: 7.05)

The measurements presented in this section are drawn from patent US7205403B2.
